B1: EHEE_rd3_0053 (parent)
chain: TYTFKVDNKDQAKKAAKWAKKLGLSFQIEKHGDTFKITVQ

- Variants of: B1
- assay-text: folding stability dG (cDNA display proteolysis); higher = more stable
- condition-context: PBS, room temperature
observable: folding stability dG (kcal/mol)
Your answer is read as kcal/mol, so omit the unit and give the number.

Answered examples (4):
| mutation-name | unit-string | folding stability dG |
| --- | --- | --- |
| K17G | kcal/mol | 1.9 |
| A19P | kcal/mol | -0.671 |
| K30G | kcal/mol | 1.57 |
| G32H | kcal/mol | 1.61 |

Lab note: next variant to report on.
## Input What value of folding stability dG has been recorded for this entry: T38L
## Output 1.78
